assayed system: Bcl-2-like protein 10 (Homo sapiens) (UniProt Q9HD36)
Sequence (Q9HD36 whole entry, looked up): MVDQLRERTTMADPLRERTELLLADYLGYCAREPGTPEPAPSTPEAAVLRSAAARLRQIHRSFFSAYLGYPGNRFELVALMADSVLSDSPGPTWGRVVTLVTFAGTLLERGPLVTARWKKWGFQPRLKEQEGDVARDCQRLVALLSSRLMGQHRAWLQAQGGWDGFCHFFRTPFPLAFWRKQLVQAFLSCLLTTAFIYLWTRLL
assay protocol: TR3 peptide-Bcl-B binding displacers, biochemical primary FP assay, phenotype converters (AID 1240);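 also: 0% = Bcl-B with tracer peptide and DMSO and 100% = tracer peptide lacking Bcl-B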
test context: GST-Bcl-B / FITC-TR3 peptide fluorescence polarization; stronger effect = higher value; compound at 3.75 mg/L
In all, about 50,000 compounds went through this assay and about 800 (1.6%) showed an effect of 50% or more. The entries come from a sample that favours strong results as a whole.
value kind: displacement (%)
Answer with a number only, understood to be in %.

Some entries whose results are on file:
compound | endpoint unit | displacement
Cc1cc(C=C2C(=O)NC(=S)NC2=O)c(C)n1-c1ccc(F)cc1 | % | 3.8
Cc1ccc(NC(=O)C2C(C)(C)C2(C)C)cc1C | % | 6.9
O=C1c2ccccc2NC(c2ccccc2F)N1c1ccccc1 (centres undefined) | % | -0.3
COc1cccc(CN2CCNCC2)c1OC | % | 15.6

Input line: What measured displacement goes with O=C(CF)NC(Nc1ccc(Br)cc1)C(Cl)(Cl)Cl (centres undefined) ?
Output line: 8.3

Input line: What measured displacement goes with `CN1C(=O)C(=Cc2cn(Cc3ccc(F)cc3)c3ccccc23)C(=O)N(C)C1=O` ?
Output line: 138

Input line: What measured displacement goes with `COc1ccccc1CN1CCN(Cc2ccccc2F)CC1` ?
Output line: -5.2

Input line: What measured displacement goes with `CN1C(=O)NC(=O)/C(=C\c2ccc([N+](=O)[O-])o2)C1=O` ?
Output line: 17.3

All figures here come from PubChem BioAssay AID1240.
